Assay: growth suppression of yeast trafficking mutant, preliminary HTS, modulators of trafficking downstream of Golgi apparatus project, 1536-format plate, OD 615 nm (AID 637); also: test concentration not given here
Details: yeast transport mutant growth, absorbance 615 nm, 18 h; hits give high values
ASSAY READOUT: inhibition (%)
Your answer should be a plain number; it is taken to be in %.

Recorded inhibition of O=C(NCc1ccc(F)cc1)c1cc2ccccn2n1 , please. 4.5

Recorded inhibition of Cc1ccc2cccc(SCC(=O)N3CCOCC3)c2n1 , please. -3.5

Recorded inhibition of COCCn1c(=N)c(C(=O)NCCc2ccccc2)cc2c(=O)n3cccc(C)c3nc21 , please. -8.83

Recorded inhibition of COc1ccc(C(=O)c2ccc(OC)c(N)c2)cc1N , please. -1.31

Recorded inhibition of O=C(CN1C(=O)c2ccccc2S1(=O)=O)NCc1ccccc1Cl , please. -2.17

Recorded inhibition of CC(CCc1ccco1)NC(=O)Cn1ncc2c1-c1ccccc1OC2 (stereo not drawn) , please. -0.66

Recorded inhibition of CCOC(=O)c1[nH]c(C)c(C(=O)Nc2ccc(Cl)cc2)c1C , please. 0.17

Recorded inhibition of Cc1cc(C)c2c(=O)n(CC(=O)NCCCN3CCOCC3)sc2n1 , please. -2.67

Recorded inhibition of COc1ccc(N2CCN(C(c3ccccc3)c3sc4nc(C)nn4c3O)CC2)cc1 (stereo not drawn) , please. -2.17

Recorded inhibition of CCOC(=O)c1sc2nc(NC(=O)C(C)(C)C)sc2c1C , please. -4.59

Recorded inhibition of CCOC(=O)c1ccc(NCc2nc3ccccc3[nH]2)cc1 , please. -2.62

Recorded inhibition of CSCCC(N=CC1=C(O)CC(C)(C)CC1=O)C(=O)O (stereo not drawn) , please. -6

Recorded inhibition of C=CCSc1nc2sc(C)c(C)c2c(=O)[nH]1 , please. -10.3

Recorded inhibition of CC1(C)CC(=O)C2=C(C1)NC(=O)CC2c1ccc(N(CCC#N)CCC#N)cc1 (stereo not drawn) , please. -1.8

Recorded inhibition of CC1CCN(c2c(NCc3ccc(C(=O)N4c5ccccc5CC4C)cc3)c(=O)c2=O)CC1 (stereo not drawn) , please. 2.33

Recorded inhibition of COc1cc(C2c3c(oc4ccccc4c3=O)C(=O)N2c2ccc(C)cn2)ccc1O (stereo not drawn) , please. -4

Recorded inhibition of O=C(c1ccc(Br)o1)N(Cc1ccccc1)c1ccccn1 , please. -0.98

Recorded inhibition of COc1cccc(-c2nc(CS(=O)(=O)CC(=O)NCc3ccc(Cl)cc3)c(C)o2)c1 , please. -2.3

Recorded inhibition of COc1ccc(NC(=O)CSc2nnc(Cc3cccn3C)n2-c2ccc(F)cc2)cc1 , please. -6.5

Recorded inhibition of COCCn1c(SCC(=O)Nc2ccc3c(c2)OCCO3)nc2c(c1=O)SC(C)C2 (stereo not drawn) , please. -2

Recorded inhibition of CCN1CCN(C(=O)c2cn(CC)c3ccc(S(=O)(=O)N(C)C)cc3c2=O)CC1 , please. -1

Recorded inhibition of CCOc1ccc(C2CC(c3ccccc3C)n3nc(N)nc3N2)cc1 (stereo not drawn) , please. -3

Recorded inhibition of COc1ccc(-n2c(Cc3cccn3C)nnc2SCC(N)=O)cc1 , please. -3.5

Origin of measurements: PubChem BioAssay
